protocol.description: Dark toxicity in human ECA109 cells assessed as cell viability at 5 uM after 24 hrs by MTT assay (reference value: 80%)
Type: cell-based, ECa-109
condition.context: read-out: Activity

| molecule | endpoint.unit | viability at 24 h, 5 µM |
| --- | --- | --- |
| CCCCCOC(C)c1c(C)c2cc3nc(c4c5[nH]c(cc6nc(cc1[nH]2)C(C)=C6CC)c(C)c5C(=O)C4)[C@@H](CCC(=O)N(CCC(=O)O)CCC(=O)O)[C@@H]3C (stereo partly drawn) | % | 50 |
| CCCOC(C)c1c(C)c2cc3nc(c4c5[nH]c(cc6nc(cc1[nH]2)C(C)=C6CC)c(C)c5C(=O)C4)[C@@H](CCC(=O)N(CCC(=O)O)CCC(=O)O)[C@@H]3C (stereo partly drawn) | % | 50 |
| CCC1=C(C)c2cc3[nH]c(cc4nc(c5c6[nH]c(cc1n2)c(C)c6C(=O)C5)[C@@H](CCC(=O)N(CCC(=O)O)CCC(=O)O)[C@@H]4C)c(C)c3C(C)OC (stereo partly drawn) | % | 50 |

* * *

Recorded logP for the following molecules
protocol.description: Octanol/water partition coefficient, log P of the compound by shake-flask method
Format: physicochemical

| molecule | logP |
| --- | --- |
| C=Cc1c(C)c2cc3nc(c4c5[nH]c(cc6nc(cc1[nH]2)C(C)=C6CC)c(C)c5C(=O)C4)[C@@H](CCC(=O)N(CCC(=O)OC)CCC(=O)OC)[C@@H]3C | 3.3 |
| CCC1=C(C)c2cc3[nH]c(cc4nc(c5c6[nH]c(cc1n2)c(C)c6C(=O)C5)[C@@H](CCC(=O)N(CCC(=O)O)CCC(=O)O)[C@@H]4C)c(C)c3C(C)OC (some centres undefined) | 2.3 |
| CCCCCOC(C)c1c(C)c2cc3nc(c4c5[nH]c(cc6nc(cc1[nH]2)C(C)=C6CC)c(C)c5C(=O)C4)[C@@H](CCC(=O)N(CCC(=O)O)CCC(=O)O)[C@@H]3C (some centres undefined) | 3.1 |
| CCCOC(C)c1c(C)c2cc3nc(c4c5[nH]c(cc6nc(cc1[nH]2)C(C)=C6CC)c(C)c5C(=O)C4)[C@@H](CCC(=O)N(CCC(=O)O)CCC(=O)O)[C@@H]3C (some centres undefined) | 2.7 |
